Observed log10 Ki, system Muscarinic acetylcholine receptor M3 (Homo sapiens).
measured attribute: log10 Ki (log10 of the value in nM)

molecule: C[N+]1(C)[C@@H]2C[C@H](OC(=O)C(CO)(c3cccs3)c3cccs3)C[C@H]1[C@@H]1O[C@@H]12
log10 Ki: -0.50

molecule: C[N+]1(C)[C@@H]2C[C@H](OC(=O)C(O)c3ccccc3)C[C@H]1[C@@H]1O[C@@H]12 (stereo partly specified)
log10 Ki: 0.30

molecule: C[N+]1(C)[C@@H]2C[C@H](OC(=O)C(O)(c3ccccc3)c3ccccc3)C[C@H]1[C@@H]1O[C@@H]12
log10 Ki: -1.20

molecule: CC(C(=O)O[C@H]1C[C@@H]2[C@H]3O[C@H]3[C@H](C1)[N+]2(C)C)(c1cccs1)c1cccs1
log10 Ki: -1.30

molecule: C[N+]1(C)[C@@H]2C[C@H](OC(=O)C(O)c3cccs3)C[C@H]1[C@@H]1O[C@@H]12 (stereo partly specified)
log10 Ki: 0.70

molecule: COC(C(=O)O[C@H]1C[C@@H]2[C@H]3O[C@H]3[C@H](C1)[N+]2(C)C)(c1cccs1)c1cccs1
log10 Ki: 0.20
